# SUBJECT_OF_TEST: MDM2-p53 interaction (Homo sapiens)
# Construct: made in house; host or cells: in vitro translation (cell-free)
# ASSAY_EXPLANATION: ELISA assay of MDM2-p53 complex formation (MDM2 binding to immobilised IP3 p53-derived peptide)
# EXPERIMENTAL_SETUP: n=3 independent determinations; 5% DMSO; interpolated from three standard concentrations
RECORDED_METRIC: IC50 (µM)

Solved cases (5 shown):
C=CCOc1ccc(COC2(c3ccc(Cl)cc3)c3ccccc3C(=O)N2CCC)cc1 (stereo not drawn) [NU8240] : 304
O=C1c2ccccc2C(OC2CCC(O)C2)(c2ccc(Cl)cc2)N1Cc1ccc(Cl)cc1 (stereo not drawn) [NU8274] : 2.4
CCCN1C(=O)c2ccccc2C1(OC1CCC(O)C1)c1ccc(Cl)cc1 (stereo not drawn) [NU8253] : 3
O=C1c2ccccc2C(OC2CCC(O)C2)(c2ccc(Cl)cc2)N1CC1CC1 (stereo not drawn) [NU8280] : 15.4
CC(C)COc1ccc(C2(NC(=O)c3ccccc3)c3ccccc3C(=O)N2CC2CCCCC2)cc1 (stereo not drawn) [NU8200] : 123

[1] O=C1c2ccccc2C(OCCNc2ccccc2)(c2ccccc2)N1Cc1ccccc1 (stereo not drawn) [NU8204]
[2] O=C1c2ccccc2C(OCCc2ccccn2)(c2ccccc2)N1Cc1ccccc1 (stereo not drawn) [NU8133]
// max by IC50 over [ 1 , 2 ] State the label of the item chosen. 2
(2: 206 µM, 1: 116 µM)

---

# SUBJECT_OF_TEST: MDM2-p53 interaction (Homo sapiens, UniProt Q00987)
# Construct: made in house; host or cells: in vitro translation (cell-free)
# Sequence (Q00987 whole entry): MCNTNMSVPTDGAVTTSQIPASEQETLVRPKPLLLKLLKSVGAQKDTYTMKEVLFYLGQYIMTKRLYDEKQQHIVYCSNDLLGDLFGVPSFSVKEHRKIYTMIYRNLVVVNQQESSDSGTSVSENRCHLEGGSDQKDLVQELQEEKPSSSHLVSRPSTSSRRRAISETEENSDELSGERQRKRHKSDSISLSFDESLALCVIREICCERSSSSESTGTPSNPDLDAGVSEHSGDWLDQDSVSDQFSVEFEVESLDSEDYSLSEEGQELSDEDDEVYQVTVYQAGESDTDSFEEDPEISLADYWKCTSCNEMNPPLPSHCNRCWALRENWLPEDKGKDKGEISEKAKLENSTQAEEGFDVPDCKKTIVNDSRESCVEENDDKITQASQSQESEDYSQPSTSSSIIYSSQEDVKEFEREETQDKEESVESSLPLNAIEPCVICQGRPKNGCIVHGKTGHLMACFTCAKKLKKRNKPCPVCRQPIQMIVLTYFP
# ASSAY_EXPLANATION: ELISA assay of MDM2-p53 complex formation (MDM2 binding to immobilised IP3 p53-derived peptide)
# EXPERIMENTAL_SETUP: n=3 independent determinations; 5% DMSO; interpolated from three standard concentrations
RECORDED_METRIC: IC50 (µM)

Solved cases (2 shown):
CSc1ccc(C2(NC(=O)c3ccccc3)c3ccccc3C(=O)N2CC2CCCCC2)cc1 (stereo not shown) : 82
COc1ccc(COC2(c3ccccc3)c3ccccc3C(=O)N2Cc2ccccc2)cc1 (stereo not shown) : 456

[I] CC(C)(C)c1ccc(COC2(c3ccccc3)c3ccccc3C(=O)N2Cc2ccccc2)cc1 (stereo not shown)
[II] C#CCN1C(=O)c2ccccc2C1(OCc1cc(OC)c(O)c(OC)c1)c1ccc(Cl)cc1 (stereo not shown)
// max by IC50 over [ I , II ] State the label of the item chosen. I
(I: 92 µM, II: 23 µM)

---

Below, each entry is listed alongside its reported pIC50.
# SUBJECT_OF_TEST: MDM2-p53 interaction (Homo sapiens)
# Construct: made in house; host or cells: in vitro translation (cell-free)
# ASSAY_EXPLANATION: Preliminary screening, in vitro MDM2-p53 binding assay
# EXPERIMENTAL_SETUP: preliminary screening studies; read-out: IC50 (inhibition of the MDM2-p53 interaction)
pIC50: −log10 of the molar value.

CCCOC1(c2ccccc2)c2ccccc2C(=O)N1Cc1ccccc1 (stereo not drawn) [NU8001] : ~3.70
CCCNC1(c2ccccc2)c2ccccc2C(=O)N1Cc1ccccc1 (stereo not drawn) [NU8006] : ~3.70

Below: the item to evaluate.
pIC50 in this record for CCCOC1(c2ccccc2)c2ccccc2C(=O)N1CCC (stereo not drawn) [NU8009] : ~3.70
